Where do the numbers come from? From the supplement of paper PMC10266784.

B1: library; numbered along this chain (parent)
chain: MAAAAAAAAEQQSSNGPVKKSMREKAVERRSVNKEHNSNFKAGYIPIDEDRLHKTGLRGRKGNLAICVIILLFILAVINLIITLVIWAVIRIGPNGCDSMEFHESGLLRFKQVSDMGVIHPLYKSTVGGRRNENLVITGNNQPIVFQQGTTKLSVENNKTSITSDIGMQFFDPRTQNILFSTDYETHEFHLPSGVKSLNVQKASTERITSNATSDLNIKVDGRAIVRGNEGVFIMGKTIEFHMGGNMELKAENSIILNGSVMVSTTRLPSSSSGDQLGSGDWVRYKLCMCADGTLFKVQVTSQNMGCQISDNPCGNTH

Variants of: B1
Test: SGCB cell-surface expression functional score (HA stain, bin4 vs bin1, normalised to synonymous) (log10 ratio); higher = more cell-surface SGCB (functional)
Below, each entry is listed alongside its reported SGCB cell-surface expression functional score (log10).
quantity name: SGCB cell-surface expression functional score (log10)

- change: "I92L"
  test value: -0.39
- change: "G245I"
  test value: 0.57
- change: "L287D"
  test value: -0.88
- change: "K61H"
  test value: -0.27
- change: "R131W"
  test value: 0.6
- change: "T213K"
  test value: 0.23
- change: "D221S"
  test value: 0.59
- change: "R23L"
  test value: 0.16
- change: "G306R"
  test value: -0.84
- change: "G244E"
  test value: 0.47
- change: "A65V"
  test value: 0.3
- change: "Q112M"
  test value: -0.17
- change: "H190T"
  test value: 0.55
- change: "R58K"
  test value: -0.66
- change: "G96A"
  test value: -1.24
- change: "Y44H"
  test value: 0.01
- change: "N15W"
  test value: 0.29
- change: "I69E"
  test value: 0.15
- change: "V18A"
  test value: 0.26
- change: "S270P"
  test value: 0
- change: "Y184M"
  test value: -1.01
- change: "R174H"
  test value: -0.58
- change: "N177Y"
  test value: 0.11
- change: "V200Y"
  test value: -1.16
- change: "L135E"
  test value: -1.07
- change: "N63A"
  test value: -0.08
- change: "S21F"
  test value: -0.32
- change: "S254G"
  test value: 0.08
- change: "N199C"
  test value: -0.28
- change: "V18E"
  test value: 0.13
- change: "E248A"
  test value: 0.29
- change: "Y184F"
  test value: 0.26
- change: "S125K"
  test value: -0.93
- change: "Q142Y"
  test value: -0.3
- change: "N134M"
  test value: -0.26
- change: "F73T"
  test value: -0.22
- change: "G231P"
  test value: -1.37
- change: "F73V"
  test value: -0.23
- change: "M116R"
  test value: -1.55
- change: "K25P"
  test value: 0.05
- change: "M1T"
  test value: -1.08
- change: "N140T"
  test value: -0.19
- change: "Q276N"
  test value: -0.22
- change: "E248T"
  test value: 0.54
- change: "A212C"
  test value: -0.61
- change: "K25A"
  test value: -0.05
